# Tested on: OVCAR-5 ovarian
# assay details: NCI tumour cell line growth inhibition, 48 h
// values below are reported GI50

Cc1cc(=O)oc2ccc(OC/C=C3\CCC(=O)O3)cc12	14.8 µM
O=C1NC(=NCc2ccccc2Cl)S/C1=C\c1ccc2ncccc2c1	> 25 µM
CCOC(=O)[C@@H](C)C[C@H](Cc1ccccc1)NC(=O)c1csc([C@@H](C[C@H](C(C)C)N(C)C(=O)[C@@H](NC(=O)[C@H]2CCCCN2C)C(C)(C)CC)OC(C)=O)n1	0.0037 µM
C=C1C(=O)O[C@H]2[C@H]1CC/C(COC(=O)c1cc(OC)c(OC)c(OC)c1)=C\CC[C@@]1(C)O[C@@H]21	1.76 µM
CN1CCN(CC(=O)N(C)c2ccc(N=C(c3ccccc3)c3c(O)[nH]c4ccc(C#N)cc34)cc2)CC1	7.11 µM

Exercise: Tell me reported GI50 for COc1cccc(/C=C/C(=O)c2ccc3cc(OC)ccc3c2)c1 , tested with OVCAR-5 ovarian.
Solution: 11.1 µM

Exercise: Tell me reported GI50 for CN=C(N)c1ccc(N=C(N)c2ccc(-c3ccc(C(N)=Nc4ccc(C(N)=NC)cc4)cc3)cc2)cc1 , tested with OVCAR-5 ovarian.
Solution: > 100 µM

Exercise: Tell me reported GI50 for O=C1[C@@H]2C(c3ccc(Br)cc3)=NO[C@@H]2C(=O)N1c1ccc(Cc2ccc(N3C(=O)[C@H]4C(c5ccc(Br)cc5)=NO[C@H]4C3=O)cc2)cc1 , tested with OVCAR-5 ovarian.
Solution: > 40 µM
